# run-description: Solubility of dolutegravir and its salts in aqueous media
# Type: physicochemical
# study-conditions: simulated gastric fluid; 0.1 N HCl (pH 1.2); read-out: solubility
Where a name gives a salt, the structure may show the parent alone.
endpoint-name: solubility

// solubility lookup, key: C[C@@H]1CCO[C@H]2Cn3cc(C(=O)NCc4ccc(F)cc4F)c(=O)c(O)c3C(=O)N12 [sodium salt of dolutegravir]
< 100 µg/mL
